- SUBJECT_OF_TEST: Cyclin-dependent kinase 4/cyclin D1 (Homo sapiens)
- EXPERIMENTAL_PROTOCOL: Inhibition of human recombinant CDK4/cyclin D1 using fluoresceinyl-Ahx-Pro-Val-Lys-Arg-Arg-Leu-(3ClPhe)-Gly as substrate after 45 mins by fluorescence polarization assay
Where a SMILES comes first, the peptide text is derived from it. [ ]: non-standard residue; d: D form. The star is where a group is joined. Phe(4-F) = N[C@@H](Cc1ccc(F)cc1)C(=O)O; X14 = O=C(c1csc(-c2ccsc2)n1)*; X16 = CCOc1ccc(CC(=O)*)cc1; X8 = COc1cccc(C(=O)*)n1
// reported IC50 for each item listed

COMPOUND | IC50
CC[C@H](C)[C@H](NC(=O)[C@H](CC(C)C)NC(=O)[C@H](CCCN=C(N)N)NC(=O)c1csc(-c2ccsc2)n1)C(=O)N[C@@H](Cc1ccccc1)C(=O)O (X14-RLIF-OH) | > 180 µM
COc1cccc(C(=O)N[C@@H](CCCN=C(N)N)C(=O)N[C@@H](CC(C)C)C(=O)N[C@@H](CC(N)=O)C(=O)N[C@@H](Cc2ccc(F)cc2)C(=O)O)n1 (X8-RLN[Phe(4-F)]-OH) | 36.9 µM

We now examine a further compound.
I would be grateful if you could share the reported IC50 for CCOc1ccc(CC(=O)N[C@@H](CCCN=C(N)N)C(=O)N[C@@H](CC(C)C)C(=O)N[C@@H](CC(N)=O)C(=O)N[C@@H](Cc2ccc(F)cc2)C(=O)O)cc1 (X16-RLN[Phe(4-F)]-OH) . > 100 µM

* * *

This listing pairs compounds with measured IC50.
- SUBJECT_OF_TEST: Cyclin-dependent kinase 4/cyclin D1 (Homo sapiens, UniProt P24385)
- Sequence (P11802 whole entry): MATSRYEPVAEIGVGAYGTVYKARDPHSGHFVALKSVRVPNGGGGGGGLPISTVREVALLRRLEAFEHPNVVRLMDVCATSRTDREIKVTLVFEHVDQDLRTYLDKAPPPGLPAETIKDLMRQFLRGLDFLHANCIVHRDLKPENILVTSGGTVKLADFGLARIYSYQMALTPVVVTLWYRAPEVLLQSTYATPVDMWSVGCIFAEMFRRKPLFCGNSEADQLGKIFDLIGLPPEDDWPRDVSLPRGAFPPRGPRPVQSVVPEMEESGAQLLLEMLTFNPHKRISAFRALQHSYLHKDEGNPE
- Sequence (P24385 whole entry): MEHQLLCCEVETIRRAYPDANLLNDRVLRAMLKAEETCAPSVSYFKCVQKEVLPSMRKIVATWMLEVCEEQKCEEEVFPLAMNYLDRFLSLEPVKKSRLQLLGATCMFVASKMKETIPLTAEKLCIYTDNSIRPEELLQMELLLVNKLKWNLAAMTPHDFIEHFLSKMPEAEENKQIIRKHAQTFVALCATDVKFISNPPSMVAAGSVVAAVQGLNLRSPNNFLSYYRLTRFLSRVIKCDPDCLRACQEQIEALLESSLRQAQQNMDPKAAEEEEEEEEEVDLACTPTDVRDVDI
- EXPERIMENTAL_PROTOCOL: Inhibition of human recombinant CDK4/cyclin D1 using fluoresceinyl-Ahx-Pro-Val-Lys-Arg-Arg-Leu-(3ClPhe)-Gly as substrate after 45 mins by fluorescence polarization assay
Where a SMILES comes first, the peptide text is derived from it. The star is where a group is joined. Picolinoyl(6-Me) = Cc1cccc(C(=O)*)n1; X11 = CCN(CC)Cc1ccc(C(=O)*)o1
Response body: numeric value in µM, unit text excluded.

COMPOUND | SUBJECT_OF_TEST | UNIT | IC50
CC[C@H](C)[C@H](NC(=O)[C@H](CC(C)C)NC(=O)[C@H](CCCNC(=N)N)NC(=O)c1cccc(C)n1)C(=O)N[C@@H](Cc1ccccc1)C(=O)O ({Picolinoyl(6-Me)}-RLIF-OH) | Cyclin-dependent kinase 4/cyclin D1 (Homo sapiens, UniProt P24385) | µM | 85.7

Given CC[C@H](C)[C@H](NC(=O)[C@H](CC(C)C)NC(=O)[C@H](CCCNC(=N)N)NC(=O)c1ccc(CN(CC)CC)o1)C(=O)N[C@@H](Cc1ccccc1)C(=O)O (X11-RLIF-OH) , state its recorded IC50. 41.9

* * *

- SUBJECT_OF_TEST: Cyclin-dependent kinase 4/cyclin D1 (Homo sapiens, UniProt P24385)
- EXPERIMENTAL_PROTOCOL: Inhibition of human recombinant CDK4/cyclin D1 using fluoresceinyl-Ahx-Pro-Val-Lys-Arg-Arg-Leu-(3ClPhe)-Gly as substrate after 45 mins by fluorescence polarization assay
pIC50: −log10 of the molar value. Where a SMILES comes first, the peptide text is derived from it. [ ]: non-standard residue; d: D form. The star is where a group is joined. Phe(4-F) = N[C@@H](Cc1ccc(F)cc1)C(=O)O; X1 = Cc1cnn(Cc2ccc(C(=O)*)o2)c1; X12 = O=C(c1csc(-c2cccs2)n1)*; X7 = CC(C)COc1ccc(CC(=O)*)cc1; Picolinoyl = O=C(c1ccccn1)*
PARAMETER_MEASURED: pIC50

COMPOUND | pIC50
CC[C@H](C)[C@H](NC(=O)[C@H](CC(C)C)NC(=O)[C@H](CCCN=C(N)N)NC(=O)c1ccc(Cn2cc(C)cn2)o1)C(=O)N[C@@H](Cc1ccccc1)C(=O)O (X1-RLIF-OH) | < 3.74
CC(C)COc1ccc(CC(=O)N[C@@H](CCCNC(=N)N)C(=O)N[C@@H](CC(C)C)C(=O)N[C@@H](CC(N)=O)C(=O)N[C@@H](Cc2ccc(F)cc2)C(=O)O)cc1 (X7-RLN[Phe(4-F)]-OH) | < 4.00
CC[C@H](C)[C@H](NC(=O)[C@H](CC(C)C)NC(=O)[C@H](CCCNC(=N)N)NC(=O)c1csc(-c2cccs2)n1)C(=O)N[C@@H](Cc1ccccc1)C(=O)O (X12-RLIF-OH) | < 3.74

Param item = CC(C)C[C@H](NC(=O)[C@H](CCCN=C(N)N)NC(=O)c1ccccn1)C(=O)N[C@@H](CC(N)=O)C(=O)N[C@@H](Cc1ccc(F)cc1)C(=O)O (Picolinoyl-RLN[Phe(4-F)]-OH) ; retrieve measured pIC50. 4.32
